Reference source for all entries: the NIST ThermoML archive (doi:10.1016/j.jct.2018.03.031)

Give molar heat capacity at constant pressure for every item shown.
test name: molar heat capacity at constant pressure
condition: 283.15 K; 101.33 kPa; Liquid; Large sample (1 g) DSC
Give bare numbers, in J/K/mol.

Some compounds with known molar heat capacity at constant pressure results, for comparison:
CCCCCCOS(=O)(=O)[O-].CC[n+]1ccn(C)c1 [3-ethyl-1-methyl-1H-imidazolium hexyl sulfate]: 505.2
COCC[N+]1(C)CCCC1.O=S(=O)([N-]S(=O)(=O)C(F)(F)F)C(F)(F)F: 575.3
CCCCO: 168
CCn1cc[n+](C)c1.O=S(=O)([N-]S(=O)(=O)C(F)(F)F)C(F)(F)F: 521

Looking for the measured molar heat capacity at constant pressure of CCCC[N+]1(C)CCCC1.O=S(=O)([O-])C(F)(F)F [1-butyl-1-methylpyrrolidinium trifluoromethanesulfonate] , can you help?
436.5
